Each entry below carries its reported EC50.
Biological target: human MCH-R2 (Homo sapiens)
Sequence (Q969V1 whole entry): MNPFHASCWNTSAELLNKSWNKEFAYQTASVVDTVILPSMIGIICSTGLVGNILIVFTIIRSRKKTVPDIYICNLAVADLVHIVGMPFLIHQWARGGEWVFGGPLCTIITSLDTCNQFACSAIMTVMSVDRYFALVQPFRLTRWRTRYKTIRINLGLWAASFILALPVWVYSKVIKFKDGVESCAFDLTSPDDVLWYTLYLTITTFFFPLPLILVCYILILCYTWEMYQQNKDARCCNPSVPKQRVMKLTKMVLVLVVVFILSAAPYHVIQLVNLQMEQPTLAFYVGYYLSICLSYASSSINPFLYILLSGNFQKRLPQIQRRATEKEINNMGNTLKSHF
Experiment: Aequorin bioluminescence functional assay, MCH-2R
Conditions: MCH-2R EC50 (nM), Table 1; aequorin functional assay, 293-AEQ17 cells
Where a SMILES comes first, the peptide text is derived from it. Bridges are numbered along the chain shown (N, C = ends).
Result Type: EC50 (nM)

molecule=CSCC[C@@H]1NC(=O)[C@@H](NC(=O)[C@H](CCCNC(=N)N)NC(C)=O)CSSC[C@@H](C(N)=O)NC(=O)[C@@H]2CCCN2C(=O)[C@H](CCCNC(=N)N)NC(=O)[C@H](Cc2ccc(O)cc2)NC(=O)[C@H](C(C)C)NC(=O)[C@H](CCCCNC(=N)N)NC(=O)CNC(=O)[C@H](CC(C)C)NC1=O op=> measured_value=10000
molecule=CSCC[C@@H]1NC(=O)[C@@H](NC(=O)[C@H](CCCNC(=N)N)NC(C)=O)CSSC[C@@H](C(N)=O)NC(=O)[C@@H]2CCCN2C(=O)[C@H](CCCNC(=N)N)NC(=O)[C@H](Cc2ccc(O)cc2)NC(=O)[C@H](C(C)C)NC(=O)[C@H](CCCNC(=N)N)NC(=O)[C@@H](Cc2ccccc2)NC(=O)[C@H](CC(C)C)NC1=O op== measured_value=25
molecule="CC(=O)N[C@@H](CCCNC(=N)N)C(=O)N[C@H]1CSSC[C@@H](C(N)=O)NC(=O)[C@@H]2CCCN2C(=O)[C@H](CCCNC(=N)N)NC(=O)[C@H](Cc2ccc(O)cc2)NC(=O)[C@H](C(C)C)NC(=O)[C@H](CCCNC(=N)N)NC(=O)CNC(=O)[C@H](CC(C)C)NC(=O)[C@H](C)NC1=O [compound 4] (Ac-RCALGRVYRPC-NH2; disulfide 2-11)" op== measured_value=12

* * *

Biological target: UniProtKB Q969V1
Test: Aequorin bioluminescence functional assay, MCH-2R
Details: MCH-2R EC50 (nM), Table 1; aequorin functional assay, 293-AEQ17 cells
Result Type: EC50 (nM)

chemical_structure=CSCC[C@@H]1NC(=O)[C@@H](NC(=O)[C@H](CCCNC(=N)N)NC(C)=O)CSSC[C@@H](C(N)=O)NC(=O)[C@@H]2CCCN2C(=O)[C@H](CCCNC(=N)N)NC(=O)[C@H](Cc2ccc(O)cc2)NC(=O)[C@H](C(C)C)NC(=O)[C@H](CCCNC(=N)N[N+](=O)[O-])NC(=O)CNC(=O)[C@H](CC(C)C)NC1=O result_type=EC50 op=> measured_value=10000
chemical_structure=CSCC[C@@H]1NC(=O)[C@@H](NC(=O)[C@H](CCCNC(=N)N)NC(=O)[C@H](CC(C)C)NC(=O)[C@H](CCSC)NC(=O)[C@H](CC(=O)O)NC(=O)[C@H](Cc2ccccc2)NC(=O)[C@@H](N)CC(=O)O)CSSC[C@@H](C(=O)N[C@@H](Cc2c[nH]c3ccccc23)C(=O)N[C@@H](CCC(N)=O)C(=O)N[C@H](C(=O)O)C(C)C)NC(=O)[C@@H]2CCCN2C(=O)[C@H](CCCNC(=N)N)NC(=O)[C@H](Cc2ccc(O)cc2)NC(=O)[C@H](C(C)C)NC(=O)[C@H](CCCNC(=N)N)NC(=O)CNC(=O)[C@H](CC(C)C)NC1=O result_type=EC50 op== measured_value=30.7
chemical_structure=CSCC[C@@H]1NC(=O)[C@@H](NC(=O)[C@H](CCCNC(=N)N)NC(C)=O)CSSC[C@@H](C(N)=O)NC(=O)[C@@H]2CCCN2C(=O)[C@H](CCCNC(=N)N)NC(=O)[C@H](Cc2ccc(O)cc2)NC(=O)[C@H](C(C)C)NC(=O)[C@H](CCCNC(=N)N)NC(=O)C(C)(C)NC(=O)[C@H](CC(C)C)NC1=O result_type=EC50 op== measured_value=24
